test system: NCI-H460; test: Inhibition test on cell proliferation (MTT), NCI-H460; format: cell-based, human; details: 72 hours of drug treatment, MTT; read-out: IC50 (nM) NCI-H460
PROPERTY: IC50 (nM)

>>> print(df.to_string())
                                   molecule  target_entity  observed_result
0  CC1CN(CCCn2cnc(/C=c3\[nH]c(=O)/c(=C/c4cccc(C(=O)c5ccc(F)cc5)c4)[nH]c3=O)c2C(C)C)CC(C)O1 (stereo not shown) [PLN-2-12]       NCI-H460             3.77
1  C=CC(=O)N1CCN(CCCn2cnc(/C=c3\[nH]c(=O)/c(=C/c4cccc(F)c4)[nH]c3=O)c2C(C)C)CC1       NCI-H460             16.9

[A] CC(C)c1c(/C=c2\[nH]c(=O)/c(=C/c3cccc(C(=O)c4ccc(F)cc4)c3)[nH]c2=O)ncn1CCCN1CCOCC1
[B] CC1CN(CCCn2cnc(/C=c3\[nH]c(=O)/c(=C/c4cccc(C(=O)c5ccc(F)cc5)c4)[nH]c3=O)c2C(C)C)CC(C)O1 (stereo not shown) [PLN-2-13]
Q: Lower value for measured IC50? Options: A , B Reply with the label of the item you choose.
A: A

---

Tested on: HCC-LM3
Assay: Inhibition test on cell proliferation (MTT), HCC-LM3
Format: cell-based, human
Details: Homo sapiens, HCCLM3, 72 h, 72 hours of drug treatment, MTT; read-out: IC50 (nM) HCC-LM3
Source text: Tumor cells (NCI-H460, BxPC-3, HT-29, HCC-LM3) in the logarithmic growth phase were digested, centrifuged, and the supernatants were removed. Cells were resuspended by adding fresh culture medium, and counted using a cell counting plate. […] Subsequently, the absorbance (OD value) was detected at a wavelength of 490 nm using a microplate reader. […]
PROPERTY: IC50 (nM)

Field: example entries. Status: answers known.
                                   molecule  property  observed_result
0  CCCOCC1CN(CCCn2cnc(/C=c3\[nH]c(=O)/c(=C/c4cccc(F)c4)[nH]c3=O)c2C(C)C)CCO1 (stereo not drawn)      IC50             23.3
1  CC(C)c1c(/C=c2\[nH]c(=O)/c(=C/c3cccc(F)c3)[nH]c2=O)ncn1CCCN1CCO[C@@H](C)C1      IC50             13.9

[P] CC(C)c1c(/C=c2\[nH]c(=O)/c(=C/c3ccccc3)[nH]c2=O)ncn1CCCN1CCOCC1
[Q] CC(C)c1c(/C=c2\[nH]c(=O)/c(=C/c3ccc(F)c(F)c3)[nH]c2=O)ncn1CCCN1CCOCC1
Q: I need your help: which of the pair P , Q has higher IC50? Please indicate the selected item by its label.
A: Q
(Q: 64.9 nM, P: 9.78 nM)

---

assay: Compound solubility experiment, Method 2: about 2 mg salt in 0.2 mL ultrapure water, dissolution observed; assay type: physicochemical; conditions: 37 °C, thermodynamic from solid, salts, 37±1° C., shaken 24 hours
Where a name gives a salt, the structure may show the parent alone.
# solubility at 24 h annotations

In [3]: df
Out[3]:
                                   compound  observed_result
0  CC(C)c1c(/C=c2\[nH]c(=O)/c(=C/c3cc(F)ccc3F)[nH]c2=O)ncn1CCCN1CCOCC1 [PLN-2-7-1, hydrochloride]    > 10000 µg/mL
1  CC(C)c1c(/C=c2\[nH]c(=O)/c(=C/c3cccc(F)c3)[nH]c2=O)ncn1CCCN1CCOCC1 [PLN-2-9-1, hydrochloride]    > 10000 µg/mL

Please find the next compound below.
Q: Request the reported solubility at 24 h associated with O=c1[nH]/c(=C\c2ncn(CCCN3CCOCC3)c2C2CC2)c(=O)[nH]/c1=C\c1cccc(F)c1 [PLN-2-10-1, hydrochloride]
A: > 10000 µg/mL
